# assay_system: recombinant pentameric gH complex (Towne strain) (human cytomegalovirus, Towne strain) (UniProt P17176)
# Sequence (P17176 30-715, one chain of several): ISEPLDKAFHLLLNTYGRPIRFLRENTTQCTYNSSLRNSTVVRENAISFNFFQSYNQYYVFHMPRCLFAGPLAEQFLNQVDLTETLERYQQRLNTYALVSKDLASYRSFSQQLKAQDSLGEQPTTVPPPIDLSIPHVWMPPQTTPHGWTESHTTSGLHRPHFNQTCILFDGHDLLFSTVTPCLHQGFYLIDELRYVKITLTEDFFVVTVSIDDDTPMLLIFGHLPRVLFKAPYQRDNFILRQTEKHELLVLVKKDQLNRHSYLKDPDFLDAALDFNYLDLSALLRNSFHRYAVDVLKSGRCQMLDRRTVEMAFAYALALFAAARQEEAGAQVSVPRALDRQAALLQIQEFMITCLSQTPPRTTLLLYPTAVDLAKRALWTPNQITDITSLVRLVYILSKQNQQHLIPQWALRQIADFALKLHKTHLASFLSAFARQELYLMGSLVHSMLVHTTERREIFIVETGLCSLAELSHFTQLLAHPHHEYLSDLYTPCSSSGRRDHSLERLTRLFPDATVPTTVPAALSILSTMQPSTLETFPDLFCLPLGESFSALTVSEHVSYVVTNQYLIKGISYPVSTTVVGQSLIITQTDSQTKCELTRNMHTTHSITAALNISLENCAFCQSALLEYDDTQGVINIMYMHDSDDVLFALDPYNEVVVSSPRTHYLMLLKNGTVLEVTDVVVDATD
# method_summary: BLI competition on His-pentamer; competitor (antibody 2): 3-16
measured_endpoint: Pair-wise inhibition (%)
Note: state the figure and append the unit.

{"columns": ["binder", "measurement"],
 "data": [
  ["1-103 (antibody, V domains shown) VH: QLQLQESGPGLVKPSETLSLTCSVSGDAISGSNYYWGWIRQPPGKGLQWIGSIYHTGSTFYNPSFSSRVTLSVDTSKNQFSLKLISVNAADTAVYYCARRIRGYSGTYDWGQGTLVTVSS VL: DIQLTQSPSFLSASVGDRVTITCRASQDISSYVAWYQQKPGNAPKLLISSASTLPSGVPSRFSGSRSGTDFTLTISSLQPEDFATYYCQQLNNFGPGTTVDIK", "-38%"],
  ["2-18 (antibody, V domains shown) VH: EVQLVQSGGGLVQPGGSLRVSCAASGFSFSDHDMDWVRQAPGKGFEWVGRSRNKDYSSTTEYAASVRGRFTISRHTSEDLLYLELNTVKTEDTAVYFCARGPHHSDRSGYYGGTFDIWGQGTMVTVSS VL: DIQMTQSPSSVSASVGDRVIITCRASQGISSWLAWYQQKPGRAPRLLIYDASTLESGVPSRFSGRGSGTEFTLTINSLQPEDFATYYCQQGNMFPLTFGGGTKVEIK", "17%"]
]}

Enquiry: Field request: Pair-wise inhibition (%) | item: 1-32 (antibody, V domains shown) VH: QVKLVESGGGVVQPGRSLRLSCAGSGFAFDNYAMHWVRQAPGKGLEWVAVISLEGRNKYYAGPAKGRFSISRDNSRNTVHLQMNSLRPEDTAVYFCARDMRYYYDSNGHYRNRYGMDVWGQGTTVIVSS VL: DIQMTQSPSSLSASVGDSVTITCQASQDINQFVSWYQQKPGKPPKLLIYDASNLESGVPSRFSGSGSGTHFTFTISSLQPDDIATYYCQQYENLFTFGPGTKVDIK
Return: 10%

Enquiry: # Pair-wise inhibition (%) lookup, item 2-25 (antibody, V domains shown) VH: QVQLVESGAEVKKPGALVKVSCKASGYTFTNYAIHWVRQASGQRLEWMGWINAGRGNTKYSQKFQGRVTITRDTSASTAYMELSSLRSEDAAVYFCARDESTGDYYYYMDVWGKGTTVTVSS VL: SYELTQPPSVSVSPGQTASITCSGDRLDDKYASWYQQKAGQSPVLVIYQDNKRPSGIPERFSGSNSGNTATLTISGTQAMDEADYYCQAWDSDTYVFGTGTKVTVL
Return: 6%

Enquiry: Quick check: Pair-wise inhibition (%) of 1-150 (antibody, V domains shown) VH: QVQLVESGGGLVKPGGSLRLSCAASGFSFSAYYMSWIRQAPGKGLEWISYISSSGNTIYYTDSVKGRFTIARDNAKNSLYLQMNSLRAEDTGLYYCARDSYSKLADIEATEAFDVWGQGTMVAVSS VL: SYELTQPPSVSVAPGKTARITCGGNNIGSKSVHWYQQKPGQAPVMVIYYDSDRPSGIPERFSGSNSGNTATLTISRVEAGDEADYYCQVWDSGSDRVVFGGGTKLTVL ?
Return: 2%
